test: chemical recovery by SPE of plasma after PDMS sampling; higher = better extraction; conditions: pooled human plasma; extraction method: HLB SPE of plasma after PES; equilibration time (d): 1;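 also: over 400 spiked chemicals quantified by LC-HRMS or GC-HRMS via internal standard calibration, recovery relative to spike mix added to unspiked plasma extract to correct matrix effects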
chemical recovery by SPE of plasma values, listed per item
REPORTED METRIC: chemical recovery by SPE of plasma (%)

O=S(=O)(c1ccccc1)c1ccccc1 [Diphenylsulfone]	5.48
O=P(OC(CCl)CCl)(OC(CCl)CCl)OC(CCl)CCl [TDCPP]	4.16
CC1(C)CC(=O)CC(C)(C)N1 [2,2,6,6-Tetramethyl-4 piperidone]	2.44
Clc1ccc(Cl)c(-c2cc(Cl)c(Cl)cc2Cl)c1 [PCB101]	1.75
O=C1Nc2ccc(Cl)cc2C(c2ccccc2Cl)=NC1O (stereo unspecified) [Lorazepam]	38.9
c1ccc(-c2cccc(-c3ccccc3)c2)cc1 [m-Terphenyl]	1.91
